Ref: paper PMC8939876

- System: Plasmodium falciparum Dd2 (MDR strain with Old World genetic background)
- Type: cell-based
- test settings: DD2, read-out: In vitro activity (IC50 nM) Dd2
The following molecules are shown together with reported IC50 values.
Numbers only; they are read as nM.

{"columns": ["molecule", "unit abbreviation", "IC50"],
 "data": [
  ["COc1ccc2[nH]c3cc(F)cc(F)c3c(=O)c2c1 [2s, 1,3-Difluoro-7-methoxyacridin-9(10H)-one]", "nM", 0.29]
]}

The value of IC50 measured for the molecule CCN(CC)CCn1c2ccc([N+](=O)[O-])cc2c(=O)c2ccc(OC)cc21 turned out to be 684

The measured IC50 associated with COc1cccc2c(=O)c3cc(OC(F)(F)F)ccc3[nH]c12 reads 15.5

// sample COc1ccc2[nH]c3ccc(C#N)cc3c(=O)c2c1 , its IC50 was 932

Quick note, IC50 for COc1ccc2c(=O)c3cc([N+](=O)[O-])ccc3[nH]c2c1 [2j, 6-Methoxy-2-nitroacridin-9(10H)-one] landed at 98.1

In plain terms, COc1ccc2c(=O)c3c(F)c(F)c(F)c(F)c3[nH]c2c1 has a documented IC50 of 325

For reference, reported IC50 for COc1ccc2[nH]c3ccc(Oc4ccc(Cl)cc4)cc3c(=O)c2c1 stands at 513

// recorded IC50 for COc1ccc2c(=O)c3cc(S(=O)(=O)C(F)(F)F)ccc3[nH]c2c1 : 11.6

Value of IC50 reported for the molecule COc1ccc2c(=O)c3cc(OC(F)(F)F)ccc3[nH]c2c1 is 1.1

---

- Tested on: Plasmodium falciparum Dd2 (MDR strain with Old World genetic background)
- Assay type: cell-based
- test settings: DD2, read-out: In vitro activity (IC50 nM) Dd2
Recorded IC50 for the following molecules
// units = nM; emit number, no label

# count of solved cases: 6
{"columns": ["molecule", "IC50 (nM)"],
 "data": [
  ["COc1ccc2[nH]c3ccc(OC(F)(F)F)cc3c(=O)c2c1 [2o]", 425],
  ["O=c1c2cc(OCCCl)ccc2[nH]c2cc(F)cc(F)c12 [2u]", 0.91],
  ["O=c1c2cc(OC(F)(F)F)ccc2[nH]c2cc3ccccc3cc12 [2x]", 0.563],
  ["COc1ccc2c(=O)c3cccc(OC(F)(F)F)c3[nH]c2c1 [2f]", 753],
  ["O=C1C(O)=C([C@H]2CC[C@H](c3ccc(Cl)cc3)CC2)C(=O)c2ccccc21 [ATV, atovaquone, reference compound]", 0.1],
  ["COc1ccc2[nH]c3c(OC(F)(F)F)cccc3c(=O)c2c1 [2q]", 1680]
]}

Reported IC50 of Cc1ccc2[nH]c3ccc(OC(F)(F)F)cc3c(=O)c2c1 [2w] : 49.2

IC50 reading for COc1ccc2c(=O)c3cc(Oc4ccc(Cl)cc4)ccc3[nH]c2c1 [2e] : 11.7

The value of IC50 measured for the molecule COc1ccc2[nH]c3c(F)c(F)c(F)c(F)c3c(=O)c2c1 [2t] turned out to be 1950

Consider COc1ccc2c(=O)c3cc(C#N)ccc3[nH]c2c1 [2i] . Its measured IC50 is 177
